Source of measurements: ChEMBL document CHEMBL1201862

system: A498; test: NCI tumour cell line growth inhibition, 48 h
Activity calls are given as the source filed them. Cut-off read from the data, not from the text of the source: active = GI50 up to about 1.1 µM and inactive = higher.
endpoint: GI50

Param item = CC(=O)NC(CCCN(Cc1ccccc1)C(=O)N(C)N=O)C(=O)NCc1ccccc1 (stereo unspecified) ; retrieve measured GI50.
> 100 µM (inactive)

Param item = Cc1cccc(C(C)(C)C)c1NC(=O)CC1Sc2ccccc2NC1=O (stereo unspecified) ; retrieve measured GI50.
> 100 µM (inactive)

Param item = Nc1nc(NNc2ccccc2F)cc(=O)[nH]1 ; retrieve measured GI50.
> 100 µM (inactive)

Param item = Cc1nc2ccccc2n1CCc1nc2ccccc2s1 ; retrieve measured GI50.
14.8 µM (inactive)

Param item = COC(=O)[C@@]12C(=O)CCC(=O)C1C1C(=CC2C)O[C@@H]2OC3(CCCCC3)O[C@H]12 (stereo partly specified) ; retrieve measured GI50.
> 100 µM (inactive)

Param item = [O-][n+]1onc2c3nn(-c4ccccc4)nc3ccc21 ; retrieve measured GI50.
> 100 µM (inactive)

Param item = COc1ccc2c(c1)[n+]([O-])c(C(N)=O)c(N)[n+]2[O-] ; retrieve measured GI50.
> 100 µM (inactive)

Param item = COc1ccc(CNc2nc(NCc3ccc(OC)cc3)nc(NC(C)C)n2)cc1 ; retrieve measured GI50.
4.79 µM (inactive)

Param item = COc1ccc(CNc2nc(NCc3ccc(OC)cc3)nc(NC3CCCCC3)n2)cc1 ; retrieve measured GI50.
48.6 µM (inactive)

Param item = COc1ccccc1N/C(SCc1ccccc1)=C(/C(Cl)=C(Cl)Cl)[N+](=O)[O-] ; retrieve measured GI50.
82.8 µM (inactive)

Param item = Cc1nc2ccc(N)cc2nc1O ; retrieve measured GI50.
> 100 µM (inactive)

Param item = COC1/C(=C\C(C)=O)c2ccccc2N1C(C)=O (stereo unspecified) ; retrieve measured GI50.
> 100 µM (inactive)

Param item = O=C(O)c1ccc(CI)cc1 ; retrieve measured GI50.
20.8 µM (inactive)

Param item = O=C(CSCC(=O)N/N=C\c1ccc(O)c(O)c1O)N/N=C\c1ccc(O)c(O)c1O ; retrieve measured GI50.
29.7 µM (inactive)

Param item = CC[C@]12C=CCN3CC[C@@]4(c5ccc(OC)cc5N(C)[C@H]4[C@@](O)(C(=O)OC)[C@@H]1OC(C)=O)[C@@H]32 ; retrieve measured GI50.
102 µM (inactive)

Param item = Oc1nc2c(c(-c3ccccc3Cl)n1)COC/C2=C\c1ccccc1Cl ; retrieve measured GI50.
> 100 µM (inactive)

---

tested on: UO-31; experiment: NCI tumour cell line growth inhibition, 48 h
The source made the active and inactive calls. No stated cut-off is given here; in the data, active = GI50 up to about 1.1 µM and inactive = higher.
Hi there, I'd appreciate the recorded GI50 for every entry that follows.

Param item = COc1ccc(NC(=S)NNC(=O)c2nsc3ccccc23)cc1 ; retrieve measured GI50.
25.2 µM (inactive)

Param item = Brc1ccc(/N=C/C=C(\Nc2ccc(Br)cc2)C23CC4CC(CC(C4)C2)C3)cc1 ; retrieve measured GI50.
17.7 µM (inactive)

Param item = COc1ccc(/N=C/C=C/Nc2ccc(OC)cc2)cc1 ; retrieve measured GI50.
5.64 µM (inactive)

---

tested on: BT-549; assay: NCI tumour cell line growth inhibition, 48 h
Active and inactive are the calls of the source. No stated cut-off is given here; in the data, active = GI50 up to about 1.1 µM and inactive = higher.
Permitted responses: active, inactive

Test call, this compound: CCCC(=O)Nc1cc(/C=C/C(=O)N2CC(CCl)c3c2cc(O)c2[nH]cc(C)c32)n(C)c1 (configuration not stated)
active

Test call, this compound: CCCC(=O)NC(Nc1ccc(F)cc1)(C(F)(F)F)C(F)(F)F
inactive

Test call, this compound: CN(C)c1cccc(-c2cc(=S)c3cc4c(cc3[nH]2)OCO4)c1
inactive

Test call, this compound: CC1=NN(c2ccccc2)C(=O)/C1=C\c1c(C)[nH]n(-c2ccccc2)c1=O
inactive

Test call, this compound: CC(=O)Nc1ccc2oc(=O)c3ccccc3c2c1
inactive

Test call, this compound: CN(C)C(=O)/N=C1\SC(=N\c2ccccc2)/C(=N/c2ccccc2)N1c1ccc([N+](=O)[O-])cc1
inactive

Test call, this compound: Cc1cc(NCCCCCCCCCC[n+]2c(C)cc(N)c3ccccc32)c2ccccc2n1
inactive

Test call, this compound: COc1ccc(CNc2nc(NCc3ccc(OC)cc3)nc(NC3CCCCC3)n2)cc1
inactive

Test call, this compound: C/C(=N\NC(=[Se])N(C)C)c1ccccn1
inactive

Test call, this compound: C/C(=N\Nc1nc2ccccc2s1)c1cc(C)ncn1
inactive

Test call, this compound: NNC(=O)CCSc1ccccc1
inactive

Test call, this compound: C/C=C/[C@H](O[Si](C)(C)C(C)(C)C)[C@@H](O)/C=C/C(=O)OCC
inactive
